B1: PhoQ; a variant is named by its letters at X, in order, P23837 (parent)
chain: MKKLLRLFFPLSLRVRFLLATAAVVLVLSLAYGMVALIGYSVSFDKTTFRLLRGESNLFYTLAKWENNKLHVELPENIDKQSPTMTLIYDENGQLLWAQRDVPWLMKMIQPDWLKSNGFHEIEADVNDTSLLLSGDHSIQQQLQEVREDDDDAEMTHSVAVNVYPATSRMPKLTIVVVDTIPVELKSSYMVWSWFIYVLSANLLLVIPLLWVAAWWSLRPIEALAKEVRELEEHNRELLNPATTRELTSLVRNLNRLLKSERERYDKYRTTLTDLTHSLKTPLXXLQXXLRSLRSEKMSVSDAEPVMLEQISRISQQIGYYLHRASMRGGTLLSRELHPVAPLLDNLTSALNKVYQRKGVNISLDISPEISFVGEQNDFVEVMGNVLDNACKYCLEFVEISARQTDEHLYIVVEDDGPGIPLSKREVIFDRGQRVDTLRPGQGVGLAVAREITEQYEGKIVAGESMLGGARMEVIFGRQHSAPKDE

Variants of: B1
TEST_METHOD_NOTES: enrichment ratio after two sorts for PhoP signalling (ratio (wild type AVST 3.29)); higher = more functional
TEST_CONTEXT: with PhoP (E. coli)
The full ranking holds about 140,000 sequences; the median of “enrichment ratio after two sorts for PhoP signalling” is about 0, and the highest 2% start at about 11. Only a selection was taken, and the highest values are over-represented in it overall.
Criterion met means recorded enrichment ratio is 10 or above; Criterion not met means it is below 10.

FTPI :: Criterion not met
LTAM :: Criterion not met
GGAM :: Criterion met
TGWN :: Criterion not met
IIGM :: Criterion not met
AGIV :: Criterion met
GNSI :: Criterion not met
RVGK :: Criterion not met
KDAM :: Criterion not met
DNQP :: Criterion not met
ADIV :: Criterion met
MFTC :: Criterion not met
ADNS :: Criterion not met
TFGM :: Criterion not met
TDAM :: Criterion met
LVPS :: Criterion not met
ANYR :: Criterion not met
AARG :: Criterion not met
ANSI :: Criterion met
AGIS :: Criterion not met
VRRK :: Criterion not met
ANNS :: Criterion met
